- study.target: MMP 1 (Homo sapiens)
- Construct: human recombinant fibroblast collagenase (truncated, mw=18,828, WAR, Radnor)
- Sequence (P03956 100-269 limits assumed): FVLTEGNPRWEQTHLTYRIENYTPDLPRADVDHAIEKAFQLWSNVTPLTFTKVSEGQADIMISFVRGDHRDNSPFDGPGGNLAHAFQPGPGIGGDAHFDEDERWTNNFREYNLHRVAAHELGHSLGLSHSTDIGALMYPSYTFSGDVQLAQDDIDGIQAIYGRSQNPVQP
- assay.info: In vitro collagenase assay (human recombinant fibroblast collagenase)
- stated.conditions: read-out: MMP 1 IC 50
measured.metric: IC50 (µM)

Here are 6 compounds together with their reported answers.
[ask] I am curious: what IC50 value has been reported for `CCCCOc1ccc(S(=O)(=O)C2(C(=O)NO)CCN(C)CC2)cc1` ?
[reply] 3.42

[ask] Further, for `CCCCOc1ccc(S(=O)(=O)C2(C(=O)NO)CCN(Cc3ccc(C)cc3)CC2)cc1` ?
[reply] 3.62

[ask] Further, for `CCN1CCC(C(=O)NO)(S(=O)(=O)c2ccc(Oc3ccc(Cl)cc3)cc2)CC1` ?
[reply] 1.72

[ask] Further, for `CCCCOc1ccc(S(=O)(=O)C2(C(=O)NO)CCN(Cc3ccc(C#N)cc3)CC2)cc1` ?
[reply] 2.29

[ask] Further, for `CCC(CC)COc1ccc(S(=O)(=O)C2(C(=O)NO)CCN(Cc3ccccc3)CC2)cc1` ?
[reply] 3.16

[ask] Further, for `CCCCN1CCC(C(=O)NO)(S(=O)(=O)c2ccc(OCCC(C)C)cc2)CC1` ?
[reply] 10

P. CCCCOc1ccc(S(=O)(=O)C2(C(=O)NO)CCN(CC)CC2)cc1
Q. CCCCOc1ccc(S(=O)(=O)C2(C(=O)NO)CCN(Cc3cccc(OCCN4CCOCC4)c3)CC2)cc1
[ask] Between P and Q , which one shows the larger IC50 value? Record your answer as the label of the chosen record.
[reply] P

* * *

- study.target: MMP 1 (Homo sapiens)
- Construct: human recombinant fibroblast collagenase (truncated, mw=18,828, WAR, Radnor)
- assay.info: In vitro collagenase assay (human recombinant fibroblast collagenase)
- stated.conditions: read-out: MMP 1 IC 50
pIC50: −log10 of the molar value.
measured.metric: pIC50

Here are 2 molecules together with their reported answers.
[ask] I am curious: what pIC50 value has been reported for `CCCCOc1ccc(S(=O)(=O)C2(C(=O)NO)CCN(Cc3ccc(Cl)c(Cl)c3)CC2)cc1` ?
[reply] 5.44

[ask] Further, for `CCCCOc1ccc(S(=O)(=O)C2(C(=O)NO)CCN(Cc3cccc(Oc4ccccc4)c3)CC2)cc1` ?
[reply] 5.71

A. CN1CCC(C(=O)NO)(S(=O)(=O)c2ccc(OCc3ccc(Cl)cc3)cc2)CC1
B. CCCCOc1ccc(S(=O)(=O)C2(C(=O)NO)CCN(Cc3cccc(OC)c3)CC2)cc1
[ask] Between A and B , which one shows the larger pIC50 value? Record your answer as the label of the chosen record.
[reply] B

* * *

- study.target: UniProt:P45452
measured.metric: IC50 (nM)

Here are 2 compounds together with their reported answers.
[ask] I am curious: what IC50 value has been reported for COc1ccc(S(=O)(=O)C(CCCCOc2ccccc2)(Cc2cccnc2)C(=O)NO)cc1 (stereo not drawn) ?
[reply] 27

[ask] Further, for `CCCCN1CCC(C(=O)NO)(S(=O)(=O)c2ccc(Oc3ccc(Cl)cc3)cc2)CC1` ?
[reply] 0.9

1. CN1CCC(C(=O)NO)(S(=O)(=O)c2ccc(Oc3ccc(Cl)cc3)cc2)CC1
2. CCCCOc1ccc(S(=O)(=O)C2(C(=O)NO)CCN(Cc3ccc(Cl)c(Cl)c3)CC2)cc1
3. CCCCCC(C(=O)NO)[S+]([O-])c1ccc(OC)cc1 (single isomer, unassigned) [Example 81b]
4. CCN1CCC(C(=O)NO)(S(=O)(=O)c2ccc(Oc3ccc(Cl)cc3)cc2)CC1
[ask] List these items ordered by IC50, big to small. Order the labels as requested and list them.
[reply] 3, 2, 1, 4
(3: 15.7 nM, 2: 5.2 nM, 1: 1.6 nM, 4: 0.8 nM)
